Listed compounds paired with reported MIC
System: Mycobacterium tuberculosis (strain H37RV)
protocolSummary: In-vitro method for testing compounds against M. tuberculosis (resazurin growth inhibition, MIC)
Type: cell-based
runParameters: MIC data representing IC90's, 7 days incubation, resazurin fluorescence
Express it in microgram/ml; write the number only.

// worked examples, MIC included
Prompt line: Give MIC only, for COc1nc2cccc(Br)c2cc1C(c1ccccc1)C(O)(CCN(C)C)c1cccc2ccccc12 (single isomer, unassigned) [Compound 224] , using Mycobacterium tuberculosis (strain H37RV) data.
Response line: 44.13

Prompt line: Give MIC only, for COc1nc2ccc(Br)cc2cc1C(c1ccc(F)cc1)C(O)(CCN(C)C)c1cccc2ccccc12 (racemic) [Compound 205] , using Mycobacterium tuberculosis (strain H37RV) data.
Response line: 4.56

Prompt line: Give MIC only, for COc1nc2ccc(Br)cc2cc1C(c1ccccc1)C(O)(CC[N+](C)(C)C)c1cccc2ccccc12.[I-] (racemic) [Compound 103] , using Mycobacterium tuberculosis (strain H37RV) data.
Response line: 5.54

Others:
Prompt line: Give MIC only, for COc1nc2ccc(Br)cc2cc1C(c1ccccc1)C(O)(CCN1CCOCC1)c1ccccc1 (racemic) [Compound 124] , using Mycobacterium tuberculosis (strain H37RV) data.
Response line: 54.75

###

Listed molecules paired with reported melting point
Express it in °C; write the number only.

Prompt line: Specify melting point for COc1nc2ccc(Br)cc2cc1C(c1ccccc1)C(O)(CC[N+](C)(C)[O-])c1cccc2ccccc12 (stereo not shown) and stop.
Response line: 218

Prompt line: Specify melting point for COc1nc2ccc(Br)cc2cc1C(c1ccccc1)C(O)(CCN(C)C)c1cccc(F)c1F (stereo not shown) [Compound 113] and stop.
Response line: 185

Prompt line: Specify melting point for COc1nc2ccc(Br)cc2cc1C(c1ccc(C)cc1)C(O)(CCN(C)C)c1cccc2ccccc12 (stereo not shown) [Compound 71] and stop.
Response line: 174

Prompt line: Specify melting point for CN(C)CCC(O)(c1ccccc1)C(c1ccccc1)c1cnc2ccc(Br)cc2c1 (stereo not shown) [Compound 7] and stop.
Response line: 98

###

System: Mycobacterium tuberculosis (strain H37RV)
protocolSummary: In-vitro method for testing compounds against M. tuberculosis (resazurin growth inhibition, MIC)
Format: cell-based
runParameters: MIC data representing IC90's, 7 days incubation, resazurin fluorescence
quantityKind: log10(MIC) (log10 of the value in microgram/ml)
Scale: decimal log of MIC, MIC in microgram/ml.

Prompt line: Specify log10(MIC) for COc1nc2ccc(Br)cc2cc1C(c1ccccc1)C(O)(CCN(C)C)c1c(F)cccc1F (single isomer, unassigned) and stop.
Response line: 1.63

Prompt line: Specify log10(MIC) for COc1nc2cc(C)c(Br)cc2cc1C(c1ccccc1)C(O)(CCN(C)C)c1cc(F)cc(F)c1 (single isomer, unassigned) [Compound 228] and stop.
Response line: 0.94

Prompt line: Specify log10(MIC) for COc1nc2ccc(Br)cc2cc1C(c1ccccc1)C(O)(CC[N+](C)(C)C)c1ccccc1.[I-] (racemic) and stop.
Response line: 1.41

Prompt line: Specify log10(MIC) for COc1nc2ccc(C#N)cc2cc1C(c1ccccc1)C(O)(CCN(C)C)c1cccc(F)c1 (single isomer, unassigned) [Compound 179] and stop.
Response line: 0.17

Prompt line: Specify log10(MIC) for COc1nc2ccc(Br)cc2cc1C(c1ccc(F)cc1)C(O)(CCN(C)C)c1cccc2ccccc12 (racemic) [Compound 206] and stop.
Response line: 0.96

Prompt line: Specify log10(MIC) for COc1nc2ccc(Br)cc2cc1C(c1ccccc1)C(O)(CCN(C)C)c1ccc(F)c(F)c1 (racemic) [Compound 196] and stop.
Response line: 0.23

Others:
Prompt line: Specify log10(MIC) for COc1nc2ccc(Br)cc2cc1C(c1ccccc1)C(O)(CCN1CCCC1)c1ccc2ccccc2c1 (stereo not shown) [Compound 171] and stop.
Response line: 1.66

Prompt line: Specify log10(MIC) for COc1nc2ccc(Br)cc2cc1C(c1ccccc1)C(O)(CCN1CCOCC1)c1ccc2cc(Br)ccc2c1 (single isomer, unassigned) [Compound 177] and stop.
Response line: 1.83

Prompt line: Specify log10(MIC) for COc1nc2ccc(Br)cc2cc1C(c1ccccc1)C(O)(CCN(C)C)c1ccc2c3c(cccc13)CC2 (single isomer, unassigned) and stop.
Response line: 1.76

Prompt line: Specify log10(MIC) for COc1nc2ccc(-c3ccc(CO)o3)cc2cc1C(c1ccccc1)C(O)(CCN(C)C)c1cccc2ccccc12 (single isomer, unassigned) and stop.
Response line: 0.96

Prompt line: Specify log10(MIC) for COc1nc2ccc(Br)cc2cc1C(c1ccccc1)C(O)(CCCN(C)C)c1ccccc1 (single isomer, unassigned) [Compound 63] and stop.
Response line: 0.21

Prompt line: Specify log10(MIC) for COc1nc2ccc(-c3cc4ccccc4s3)cc2cc1C(c1ccccc1)C(O)(CCN(C)C)c1cccc(F)c1 (single isomer, unassigned) [Compound 204] and stop.
Response line: 0.96

Prompt line: Specify log10(MIC) for COc1nc2ccc(Br)cc2cc1C(c1ccccc1)C(O)(CCN1CCN(C)CC1)c1ccc2cc(Br)ccc2c1 (single isomer, unassigned) [Compound 153] and stop.
Response line: 1.74
